Record form. Attribute: IC50. Fill in for each entry.
# TEST TARGET: factor B (Homo sapiens, UniProt P00751)
# METHOD SUMMARY: assay of Biological Example 2.7
# Assay type: binding
# Set-up: made in house; host or cells: drosophila cells
# EXPERIMENTAL CONTEXT: assay of Biological Example 2.7 (Table 2)
# Sequence (P00751 26-764): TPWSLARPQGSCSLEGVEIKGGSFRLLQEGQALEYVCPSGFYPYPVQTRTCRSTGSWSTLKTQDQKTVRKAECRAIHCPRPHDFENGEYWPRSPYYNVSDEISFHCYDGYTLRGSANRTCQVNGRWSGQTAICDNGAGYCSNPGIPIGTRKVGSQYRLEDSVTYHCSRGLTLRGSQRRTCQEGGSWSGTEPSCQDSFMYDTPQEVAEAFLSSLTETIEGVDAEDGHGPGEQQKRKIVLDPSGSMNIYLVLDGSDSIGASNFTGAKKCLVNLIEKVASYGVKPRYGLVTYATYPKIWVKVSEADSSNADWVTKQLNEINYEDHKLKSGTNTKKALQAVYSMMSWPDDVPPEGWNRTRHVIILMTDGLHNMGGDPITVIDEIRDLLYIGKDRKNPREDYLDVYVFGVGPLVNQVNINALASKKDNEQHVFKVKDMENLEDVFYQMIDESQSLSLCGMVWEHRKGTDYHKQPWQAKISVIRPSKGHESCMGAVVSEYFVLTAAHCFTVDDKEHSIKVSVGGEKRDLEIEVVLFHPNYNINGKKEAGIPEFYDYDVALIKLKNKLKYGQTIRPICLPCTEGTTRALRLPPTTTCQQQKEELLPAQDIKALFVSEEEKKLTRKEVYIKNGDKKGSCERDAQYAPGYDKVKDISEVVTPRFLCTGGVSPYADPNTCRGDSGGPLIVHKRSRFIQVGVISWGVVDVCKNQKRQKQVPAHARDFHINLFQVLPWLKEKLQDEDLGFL
Answer format reminder: number followed by unit.

Q: Find IC50 (factor B (Homo sapiens, UniProt P00751)) for the entry COc1cc(C)c2[nH]ccc2c1C(CCC(=O)O)c1nc2cc(C#N)ccc2o1 (single isomer, unassigned; (-)) [Example 149-D]
Result: 120 nM

Q: Find IC50 (factor B (Homo sapiens, UniProt P00751)) for the entry COc1cc(C)c2[nH]ccc2c1C(OC(F)C(=O)O)(c1nc2cc(C#N)ccc2[nH]1)C(F)(F)F (racemic)
Result: 770 nM

Q: Find IC50 (factor B (Homo sapiens, UniProt P00751)) for the entry COc1cc(C)c2[nH]ccc2c1C(C)(OC)c1nc2cc(C#N)ccc2o1 (single isomer, unassigned; (+)) [137-K b) (+)]
Result: 820 nM

----------
# TEST TARGET: UniProtKB P00751
# METHOD SUMMARY: factor B inhibition assay of Biological Example 1
# Assay type: biochemical
# Design: CVF-Bb complex prepared from purified cobra venom factor (1 μM), recombinant human complement factor B; made in house; host or cells: drosophila cells (factor B); E. coli (factor D used to form the complex)
# EXPERIMENTAL CONTEXT: IC50 (nM), assay of Biological Example 1 (Table 1)
# Sequence (P00751 260-764 limits assumed): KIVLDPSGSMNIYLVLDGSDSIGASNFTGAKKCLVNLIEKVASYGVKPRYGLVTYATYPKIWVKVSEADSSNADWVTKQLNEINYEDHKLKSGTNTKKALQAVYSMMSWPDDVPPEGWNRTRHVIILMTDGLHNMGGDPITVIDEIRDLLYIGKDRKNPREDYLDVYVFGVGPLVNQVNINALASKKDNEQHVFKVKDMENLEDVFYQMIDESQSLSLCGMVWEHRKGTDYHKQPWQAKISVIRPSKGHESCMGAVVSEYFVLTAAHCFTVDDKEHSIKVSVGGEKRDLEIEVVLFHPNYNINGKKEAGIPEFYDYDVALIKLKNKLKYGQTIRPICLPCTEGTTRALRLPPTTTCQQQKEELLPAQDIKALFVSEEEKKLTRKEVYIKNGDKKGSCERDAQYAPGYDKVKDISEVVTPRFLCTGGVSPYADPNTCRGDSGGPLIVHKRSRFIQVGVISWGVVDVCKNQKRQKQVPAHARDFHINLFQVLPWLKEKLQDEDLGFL
# Sequence (Q91132 23-649 partner limits assumed): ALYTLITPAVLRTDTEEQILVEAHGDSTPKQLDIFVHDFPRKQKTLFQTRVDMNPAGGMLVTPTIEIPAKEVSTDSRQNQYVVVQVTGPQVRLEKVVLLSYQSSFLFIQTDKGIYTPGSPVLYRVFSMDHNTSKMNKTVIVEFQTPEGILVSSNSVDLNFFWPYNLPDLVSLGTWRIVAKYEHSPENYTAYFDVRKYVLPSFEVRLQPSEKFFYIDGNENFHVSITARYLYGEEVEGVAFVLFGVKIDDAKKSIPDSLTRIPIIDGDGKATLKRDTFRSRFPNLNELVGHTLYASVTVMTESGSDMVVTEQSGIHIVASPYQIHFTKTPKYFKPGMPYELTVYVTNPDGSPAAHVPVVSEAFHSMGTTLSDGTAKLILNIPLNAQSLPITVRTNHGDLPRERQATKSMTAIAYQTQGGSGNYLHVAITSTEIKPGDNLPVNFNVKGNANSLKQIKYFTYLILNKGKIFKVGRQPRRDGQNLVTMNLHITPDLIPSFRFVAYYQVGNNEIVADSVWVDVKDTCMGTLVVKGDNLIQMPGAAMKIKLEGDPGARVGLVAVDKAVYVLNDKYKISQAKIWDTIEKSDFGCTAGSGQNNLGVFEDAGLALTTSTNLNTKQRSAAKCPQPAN
# Sequence (Q91132 733-984 partner limits assumed): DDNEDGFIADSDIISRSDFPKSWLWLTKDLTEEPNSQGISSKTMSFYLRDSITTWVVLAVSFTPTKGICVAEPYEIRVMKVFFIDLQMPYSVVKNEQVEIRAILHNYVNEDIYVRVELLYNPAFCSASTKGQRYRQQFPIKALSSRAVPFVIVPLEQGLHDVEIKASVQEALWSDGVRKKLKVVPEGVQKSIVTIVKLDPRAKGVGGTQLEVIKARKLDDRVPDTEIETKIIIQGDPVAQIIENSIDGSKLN
# Sequence (Q91132 1264-1642 partner limits assumed): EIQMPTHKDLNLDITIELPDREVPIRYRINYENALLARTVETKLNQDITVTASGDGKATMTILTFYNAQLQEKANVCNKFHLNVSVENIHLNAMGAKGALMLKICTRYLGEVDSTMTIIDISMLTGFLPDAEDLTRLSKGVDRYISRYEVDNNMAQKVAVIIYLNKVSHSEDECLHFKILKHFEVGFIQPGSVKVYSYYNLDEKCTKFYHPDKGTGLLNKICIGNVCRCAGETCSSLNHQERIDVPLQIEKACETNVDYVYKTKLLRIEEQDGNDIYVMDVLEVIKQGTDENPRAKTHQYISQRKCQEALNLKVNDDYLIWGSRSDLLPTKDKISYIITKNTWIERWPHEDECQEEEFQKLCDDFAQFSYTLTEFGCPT
Threshold-based label: IC50 under 3000 nM gives t, IC50 not under 3000 nM gives f.

Q: Take the molecule COC(C)(c1nc2cc(C#N)ccc2[nH]1)c1c(CC(C)C)cc(C)c2[nH]ccc12 (single isomer, unassigned; (-)) [84-E b) (−)] and say whether its IC50 is less than 3000 nM.
Result: t

Q: Take the molecule Cc1cc(C)c2[nH]ccc2c1C(O)(c1nc2cc(C#N)ccc2[nH]1)C(F)(F)F (single isomer, unassigned; (+)) [80-D b) (+)] and say whether its IC50 is less than 3000 nM.
Result: f

Q: Take the molecule Cc1cc(C)c2[nH]ccc2c1Cc1nc2cc(C#N)c(F)cc2[nH]1 [Example 63-G] and say whether its IC50 is less than 3000 nM.
Result: f

Q: Take the molecule COc1cc(C)c2[nH]ccc2c1C(C)(OC)c1nc2cc(C#N)ccc2o1 (racemic) [127-B a)] and say whether its IC50 is less than 3000 nM.
Result: t

Q: Take the molecule Cc1cc(OC(C)C)c(Cc2nc3cc(C#N)ccc3[nH]2)c2cc[nH]c12 [Example 20-E] and say whether its IC50 is less than 3000 nM.
Result: t

----------
# TEST TARGET: factor B (Homo sapiens)
# METHOD SUMMARY: factor B inhibition assay of Biological Example 1
# Type: biochemical
# Parameters: CVF-Bb complex prepared from purified cobra venom factor (1 μM), recombinant human complement factor B; made in house; host or cells: drosophila cells (factor B); E. coli (factor D used to form the complex)
# EXPERIMENTAL CONTEXT: IC50 (nM), assay of Biological Example 1 (Table 1)
Record form. Attribute: IC50. Fill in for each entry.
Output spec: scalar in nM, unitless text.

Q: Field request: IC50 | item: COC(C)(c1nc2cc(C#N)ccc2[nH]1)c1c(C)cc(C)c2[nH]ccc12 (single isomer, unassigned; (-)) [84-B b) (−)]
Result: 50

Q: Field request: IC50 | item: COC(C)(c1nc2cc(C#N)ccc2[nH]1)c1c(OC(C)C)cc(C)c2[nH]ccc12 (stereo not shown)
Result: 90

Q: Field request: IC50 | item: Cc1cc(Br)c(C(O)c2nc3cc(C#N)ccc3[nH]2)c2cc[nH]c12 (stereo not shown)
Result: 2000

Q: Field request: IC50 | item: COc1cc(C)c2[nH]ccc2c1C(O)(c1nc2cc(C#N)ccc2[nH]1)C(F)(F)F (single isomer, unassigned; (-)) [33-B b) (−)]
Result: 50

Q: Field request: IC50 | item: CNC(c1nc2cc(C#N)ccc2[nH]1)(c1c(OC)cc(C)c2[nH]ccc12)C(F)(F)F (single isomer, unassigned; (+)) [38-B b) (+)]
Result: 140

Q: Field request: IC50 | item: CCc1cc(C)c2[nH]ccc2c1C(O)c1nc2cc(C#N)ccc2[nH]1 (single isomer, unassigned; (+)) [67-A b) (+)]
Result: 1160

Q: Field request: IC50 | item: COc1cc(C)c2[nH]ccc2c1C(C)(N)c1nc2cc(C#N)ccc2[nH]1 (single isomer, unassigned; (+)) [41-B b) (+)]
Result: 190

----------
# TEST TARGET: factor B (Homo sapiens)
# METHOD SUMMARY: factor B inhibition assay of Biological Example 1
# Type: biochemical
# Set-up: CVF-Bb complex prepared from purified cobra venom factor (1 μM), recombinant human complement factor B; made in house; host or cells: drosophila cells (factor B); E. coli (factor D used to form the complex)
# EXPERIMENTAL CONTEXT: IC50 (nM), assay of Biological Example 1 (Table 1)
Threshold-based label: IC50 under 500 nM gives YES, IC50 not under 500 nM gives NO.

Q: Take the compound Cc1cc(C2CC2)c(C(N)(c2nc3cc(C#N)ccc3[nH]2)C(F)(F)F)c2cc[nH]c12 (single isomer, unassigned; (+)) [107-D b) (+)] and say whether its IC50 is less than 500 nM.
Result: YES

Q: Take the compound CCCc1cc(C)c2[nH]ccc2c1C(C)(O)c1nc2cc(C#N)ccc2[nH]1 (racemic) [79-B a) 2nd compound] and say whether its IC50 is less than 500 nM.
Result: YES

Q: Take the compound CCc1cc(C)c2[nH]ccc2c1C(OC)c1nc2cc(C#N)ccc2[nH]1 (single isomer, unassigned; (+)) [70-D b) (+)] and say whether its IC50 is less than 500 nM.
Result: NO

Q: Take the compound COc1cc(C)c2[nH]ccc2c1C(C)(OC)c1nc2cc(C#N)ccc2[nH]1 (single isomer, unassigned; (-)) [27-B b) (−)] and say whether its IC50 is less than 500 nM.
Result: YES

Q: Take the compound Cc1cc(C)c2[nH]cc(-c3ccn[nH]3)c2c1C(O)c1nc2cc(C#N)ccc2[nH]1 (racemic) [Example 121-D] and say whether its IC50 is less than 500 nM.
Result: YES

Q: Take the compound COc1cc(C)c2[nH]ccc2c1C(O)c1nc2cc(C#N)ccc2[nH]1 (single isomer, unassigned; (+)) [24-B b) (+)] and say whether its IC50 is less than 500 nM.
Result: YES

----------
Record form. Attribute: IC50. Fill in for each entry.
# TEST TARGET: factor B (Homo sapiens, UniProt P00751)
# METHOD SUMMARY: factor B inhibition assay of Biological Example 1
# Format: biochemical
# Design: CVF-Bb complex prepared from purified cobra venom factor (1 μM), recombinant human complement factor B; made in house; host or cells: drosophila cells (factor B); E. coli (factor D used to form the complex)
# EXPERIMENTAL CONTEXT: IC50 (nM), assay of Biological Example 1 (Table 1)
Output spec: scalar in nM, unitless text.

Q: Field request: IC50 | item: C=C(c1nc2cc(C#N)ccc2[nH]1)c1c(CC)cc(C)c2[nH]ccc12
Result: 70

Q: Field request: IC50 | item: CCC(O)(c1nc2cc(C#N)ccc2[nH]1)c1c(OC(C)C)cc(C)c2[nH]ccc12 (single isomer, unassigned; (-)) [26-F b) (−)]
Result: 380

Q: Field request: IC50 | item: [2H]C([2H])([2H])OC(C)(c1nc2cc(C#N)ccc2[nH]1)c1c(OC)cc(C)c2[nH]ccc12 (single isomer, unassigned; (-)) [27-F b) (−)]
Result: 9

Q: Field request: IC50 | item: COc1cc(C)c2[nH]ccc2c1C(O)(c1nc2cc(C#N)ccc2o1)C(F)(F)F (single isomer, unassigned; (-)) [128-B b) (−)]
Result: 3

----------
Record form. Attribute: IC50. Fill in for each entry.
# TEST TARGET: factor B (Homo sapiens, UniProt P00751)
# METHOD SUMMARY: factor B inhibition assay of Biological Example 1
# Assay type: biochemical
# Parameters: CVF-Bb complex prepared from purified cobra venom factor (1 μM), recombinant human complement factor B; made in house; host or cells: drosophila cells (factor B); E. coli (factor D used to form the complex)
# EXPERIMENTAL CONTEXT: IC50 (nM), assay of Biological Example 1 (Table 1)
Answer format reminder: number followed by unit.

Q: Field request: IC50 | item: CCc1cc(C)c2[nH]ccc2c1Cc1nc2cc(C#N)ccc2[nH]1
Result: 160 nM

Q: Field request: IC50 | item: COc1cc(C)c2[nH]ccc2c1C(OC)(c1nc2cc(C#N)ccc2[nH]1)C1CC1 (stereo not shown)
Result: 20 nM

Q: Field request: IC50 | item: COc1cc(C)c2[nH]ccc2c1C(O)c1cc2ccc(C#N)cc2o1 (racemic)
Result: 100 nM

Q: Field request: IC50 | item: CCOc1cc(C)c2[nH]ccc2c1C(O)c1nc2cc(C#N)ccc2[nH]1 (single isomer, unassigned; (+)) [24-C b) (+)]
Result: 6050 nM

Q: Field request: IC50 | item: CCc1cc(C)c2[nH]ccc2c1C(OC)(c1nc2cc(C#N)ccc2[nH]1)C(F)(F)F (single isomer, unassigned; (-)) [84-D b) (−)]
Result: 8 nM

Q: Field request: IC50 | item: Cc1cc(Cl)c(C(O)c2nc3cc(C#N)ccc3[nH]2)c2cc[nH]c12 (single isomer, unassigned; (+)) [67-E b) (+)]
Result: 2080 nM

Q: Field request: IC50 | item: CCc1cc(C)c2[nH]ccc2c1C(OCC(=O)O)(c1nc2cc(C#N)ccc2[nH]1)C(F)(F)F (racemic)
Result: 30 nM
